methodNotes: qHTS assay to identify small molecule that activate the aryl hydrocarbon receptor (AhR) signaling pathway - cell viability counter screen (AID 743086); also: nearly all actives have a fitted effect of over 45% in size
experimentalSetup: HepG2-AhR-luc viability, CellTiter-Fluor, 24 h; series mostly up to 70.3 µM
Records with an inconclusive call do not appear. Calls of active or inactive are those of the source. Calls follow the shape of the dose curve; as a rule, active = well fitted cell-killing curve with a large enough effect in the repeat runs; inconclusive = weak or mixed curves, or effect the other way; inactive = flat fitted curve, though single readings scatter.
Pick from 1.0 = active, 0.0 = inactive when you respond.

Asked: What was the test verdict on CCOC(=O)CCC(=O)O[C@H]1[C@H](O[C@@H]2[C@@H](C)[C@H](O[C@H]3C[C@@](C)(OC)[C@@H](O)[C@H](C)O3)[C@@H](C)C(=O)O[C@H](CC)[C@@](C)(O)[C@H](O)[C@@H](C)C(=O)[C@H](C)C[C@@]2(C)O)O[C@H](C)C[C@@H]1N(C)C ?
Given back: 0.0

Asked: What outcome does the record of this test show for CC(CC(c1ccccc1)c1ccccc1)NC(C)(C)C (stereo not drawn) ?
Given back: 0.0

Asked: Which outcome did this test record for the compound C/C=C1\NC(=O)[C@H]2CSSCC/C=C/[C@H](CC(=O)N[C@H](C(C)C)C(=O)N2)OC(=O)C(C(C)C)NC1=O (stereo partly drawn) ?
Given back: 1.0

---

systemUnderTest: Estrogen receptor (Homo sapiens)
methodNotes: qHTS assay to identify small molecule agonists of the estrogen receptor alpha (ER-alpha) signaling pathway using the BG1 cell line (AID 743079); also: nearly all actives have a fitted effect of over 20% in size
experimentalSetup: BG1Luc4E2 cells, ERE-luciferase agonist, 22 h
Results filed as inconclusive are left out. Active and inactive are the calls of the source. Calls follow the shape of the dose curve; as a rule, active = well fitted activation curve with a large enough effect in the repeat runs; inconclusive = weak or mixed curves, or effect the other way; inactive = no such curve, though single readings can be large or run the other way.
Answer with one of the outcomes True (active), False (inactive)

Asked: Dear colleague, could you share the recorded outcome for O=C[C@H](O)[C@@H](O)[C@H](O[C@H]1O[C@H](CO)[C@@H](O[C@H]2O[C@H](CO)[C@@H](O)[C@H](O)[C@H]2O)[C@H](O)[C@H]1O)[C@H](O)CO when you have a moment?
Given back: True

Asked: How did this test come out for COc1ccc(C(=O)CCC(=O)O)c2ccccc12 ?
Given back: False

Asked: Which outcome was entered for the molecule O=P(O)(O)OC[C@H]1O[C@](O)(COP(=O)(O)O)[C@@H](O)[C@@H]1O in this test?
Given back: True

Asked: Called result for CC1=C(/C=C/C(C)=C/C=C/C(C)=C/C(=O)Oc2c(C)c(C)c3c(c2C)CC[C@@](C)(CCC[C@H](C)CCC[C@H](C)CCCC(C)C)O3)C(C)(C)CCC1
Given back: False

Asked: How did this test come out for CC(CC(c1ccccc1)c1ccccc1)NC(C)(C)C (configuration not stated) ?
Given back: False

Asked: # lookup: test call for O=C(Cc1cccs1)N[C@@H]1C(=O)N2C(C(=O)[O-])=C(C[n+]3ccccc3)CS[C@H]12
Given back: False

Asked: Look up the recorded call for CC[C@H]1OC(=O)[C@H](C)[C@@H](O[C@H]2C[C@@](C)(OC)[C@@H](O)[C@H](C)O2)[C@H](C)[C@@H](O[C@@H]2O[C@H](C)C[C@H](N(C)C)[C@H]2O)[C@](C)(O)C[C@@H](C)[C@@H]2N[C@@H](COCCOC)O[C@@H]([C@H]2C)[C@]1(C)O in this test.
Given back: False

---

systemUnderTest: Androgen receptor (Homo sapiens) (UniProt P10275)
Sequence (P10275 whole entry, looked up): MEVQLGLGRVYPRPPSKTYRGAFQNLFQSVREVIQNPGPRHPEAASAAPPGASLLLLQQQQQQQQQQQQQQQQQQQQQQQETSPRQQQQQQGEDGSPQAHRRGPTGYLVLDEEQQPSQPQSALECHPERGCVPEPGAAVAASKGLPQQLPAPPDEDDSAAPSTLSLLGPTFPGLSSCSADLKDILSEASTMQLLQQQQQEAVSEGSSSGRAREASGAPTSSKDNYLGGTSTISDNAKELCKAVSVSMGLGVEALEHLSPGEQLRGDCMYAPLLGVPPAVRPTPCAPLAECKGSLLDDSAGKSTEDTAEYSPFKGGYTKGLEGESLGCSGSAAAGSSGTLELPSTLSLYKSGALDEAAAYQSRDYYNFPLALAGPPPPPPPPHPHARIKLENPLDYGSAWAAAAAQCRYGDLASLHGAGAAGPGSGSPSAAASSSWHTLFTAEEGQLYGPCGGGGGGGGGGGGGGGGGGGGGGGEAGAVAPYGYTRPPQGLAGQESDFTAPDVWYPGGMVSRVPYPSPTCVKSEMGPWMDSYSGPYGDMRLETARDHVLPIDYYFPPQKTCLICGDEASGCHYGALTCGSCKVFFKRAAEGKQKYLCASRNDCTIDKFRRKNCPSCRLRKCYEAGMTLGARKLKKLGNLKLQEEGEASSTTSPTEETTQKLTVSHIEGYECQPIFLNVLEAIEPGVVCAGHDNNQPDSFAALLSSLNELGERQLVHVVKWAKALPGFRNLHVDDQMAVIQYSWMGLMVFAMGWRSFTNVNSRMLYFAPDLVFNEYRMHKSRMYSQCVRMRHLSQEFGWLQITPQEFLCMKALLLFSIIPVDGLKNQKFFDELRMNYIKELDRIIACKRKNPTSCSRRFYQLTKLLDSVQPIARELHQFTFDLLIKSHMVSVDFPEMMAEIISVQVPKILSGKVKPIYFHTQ
methodNotes: qHTS assay to identify small molecule antagonists of the androgen receptor (AR) signaling pathway using the MDA cell line (AID 743042; also: nearly all actives have a fitted effect of over 55% in size)
experimentalSetup: MDA-kb2 AR-luc, MMTV luciferase, R1881 antagonist, 16 h; series mostly up to 70.3 µM
Results filed as inconclusive are left out. Active and inactive are the calls of the source. Calls come from the whole dose curve; as a rule, active = well fitted inhibition curve with a large enough effect in the repeat runs; inconclusive = weak or mixed curves, or effect the other way; inactive = no such curve, though single readings can be large or run the other way.
The categories you may choose from are class 1 (active), class 0 (inactive)

Asked: Given CCCCCCCCCCCCCCCCSCC(COC)COP(=O)([O-])OCC[N+](C)(C)C (centres undefined) , state the outcome it received in this test.
Given back: class 0

Asked: What did this assay record as the result for NC(=S)N=Nc1ccc(NN=C(N)N)cc1 ?
Given back: class 1

Asked: Can you look up the reported call for N#CC(c1ccc(Cl)cc1)c1c(Cl)cc(-n2ncc(=O)[nH]c2=O)cc1Cl (centres undefined) for me?
Given back: class 0

Asked: For C/C=C1\NC(=O)[C@H]2CSSCC/C=C/[C@H](CC(=O)N[C@H](C(C)C)C(=O)N2)OC(=O)C(C(C)C)NC1=O (some centres undefined) , which call appears in the assay record?
Given back: class 0

Asked: // param item: CCOC(=O)c1c[nH]c2cc(OCC(C)C)c(OCC(C)C)cc2c1=O ; yields the recorded call
Given back: class 0

Asked: Can you look up the reported call for COc1ccc(-c2noc(CC(=O)O)c2-c2ccc(OC)cc2)cc1 for me?
Given back: class 0

Asked: Call for entry CCCOc1cc(N)ccc1C(=O)OCCN(CC)CC :
Given back: class 0

Asked: What was the test verdict on CCCC1([C@H](O)C/C=C/[C@H]2[C@H](O)CC(=O)[C@@H]2CCCCCCC(=O)OC)CCC1 ?
Given back: class 0

Asked: Dear colleague, could you share the recorded outcome for CC[C@H]1NC(=O)[C@@H](NC(=O)c2ncccc2O)[C@@H](C)OC(=O)[C@H](c2ccccc2)NC(=O)[C@@H]2CC(=O)CCN2C(=O)[C@H](Cc2ccccc2)N(C)C(=O)[C@@H]2CCCN2C1=O when you have a moment?
Given back: class 0

---

methodNotes: qHTS assay to test for compound auto fluorescence at 535 nm (green) in HepG2 cell free culture (AID 720686)
experimentalSetup: Cell-free medium, green autofluorescence 485/535 nm; series mostly up to 46 µM
The source made the active and inactive calls. Calls come from the whole dose curve; as a rule, active = well fitted curve in the direction sought with a large enough effect in the repeat runs; inconclusive = weak or mixed curves; inactive = flat fitted curve, though single readings scatter. Positions of bridges follow the written chain, without caps; N, C: chain ends. Non-standard residues stand in square brackets, D forms with d. Residues, ends and D or L forms follow the SMILES beside them. Orn = NCCC[C@H](N)C(=O)O; Mpa = O=C(O)CCS
assayReadout: outcome

CCOc1ccc(C[C@H]2NC(=O)CCSSC[C@@H](C(=O)N3CCC[C@H]3C(=O)N[C@@H](CCCN)C(=O)NCC(N)=O)NC(=O)[C@H](CC(N)=O)NC(=O)[C@H]([C@@H](C)O)NC(=O)[C@H]([C@@H](C)CC)NC2=O)cc1 ([Mpa][dY](Et)ITNCP[Orn]G-NH2; disulfide 1-6); inactive
CN1CCN(CCCN2c3ccccc3Sc3ccccc32)CC1; inactive
CCC[C@@]1(CCc2ccccc2)CC(O)=C([C@H](CC)c2cccc(NS(=O)(=O)c3ccc(C(F)(F)F)cn3)c2)C(=O)O1; inactive

---

systemUnderTest: Estrogen receptor (Homo sapiens)
methodNotes: qHTS assay to identify small molecule agonists of the estrogen receptor alpha (ER-alpha) signaling pathway (AID 743075);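 also: HEK293 GripTite cells with ER-alpha and UAS-driven beta-lactamase reporter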
experimentalSetup: HEK293 ER-alpha-UAS-bla, beta-lactamase FRET ratio, 18 h; series mostly up to 70.1 µM
Activity calls are given as the source filed them. Calls come from the whole dose curve. Positions of bridges follow the written chain, without caps; N, C: chain ends. Non-standard residues stand in square brackets, D forms with d. Residues, ends and D or L forms follow the SMILES beside them. *: point of attachment. X2 = CC[C@H](C)CCCCC(=O)*; Orn = NCCC[C@H](N)C(=O)O; Dab = NCC[C@H](N)C(=O)O; Mpa = O=C(O)CCS
Hi there, use one of these labels in your reply, thanks! active, inactive

Asked: Field: outcome | Entry: CC[C@H](C)CCCCC(=O)N[C@@H](CCN)C(=O)N[C@H](C(=O)N[C@@H](CCN)C(=O)N[C@H]1CCNC(=O)[C@@H]([C@H](C)O)NC(=O)[C@H](CCN)NC(=O)[C@H](CCN)NC(=O)[C@H](CC(C)C)NC(=O)[C@@H](CC(C)C)NC(=O)[C@H](CCN)NC1=O)[C@@H](C)O (X2-[Dab]T[Dab][Dab][Dab][dL]L[Dab][Dab][dT]; lactam 4-C)
Given back: inactive

Asked: Record lookup: outcome of this test for CCOC(=O)c1c[nH]c2cc(OCC(C)C)c(OCC(C)C)cc2c1=O ?
Given back: inactive

Asked: Lab log entry: O=C(Nc1ccc(Br)cc1)c1cc(Br)c(Br)s1 — outcome as called in the assay?
Given back: inactive

Asked: Short answer needed: outcome of this test for O=C(O)c1cc(N=Nc2ccc(O)c(C(=O)O)c2)ccc1O ?
Given back: inactive

Asked: Test call, this molecule: CCCCCCCCCCCCCCCC(=O)OC[C@@H](COP(=O)([O-])OCC[N+](C)(C)C)OC(=O)CCCCCCCCCCCCCCC
Given back: inactive

Asked: Identify the outcome logged in this assay for the molecule shown: CC[C@H](CC[C@@H](C)[C@H]1CC[C@H]2[C@@H]3CC=C4C[C@@H](O)CC[C@]4(C)[C@H]3CC[C@]12C)C(C)C
Given back: inactive

Asked: How did this test come out for CC1=C(C(=O)OCCN(Cc2ccccc2)c2ccccc2)C(c2cccc([N+](=O)[O-])c2)C(P2(=O)OCC(C)(C)CO2)=C(C)N1 (stereo not given) ?
Given back: inactive

Asked: Assay outcome for O=P(O)(O)OC(Cn1cncn1)(Cn1cncn1)c1ccc(F)cc1F : what was it?
Given back: inactive

Asked: For NS(=O)(=O)c1cc2c(cc1Cl)NC(Cc1ccccc1)NS2(=O)=O (stereo not given) , which call appears in the assay record?
Given back: inactive

Asked: Would you mind telling me which call this test gave CCOc1ccc(C[C@H]2NC(=O)CCSSC[C@@H](C(=O)N3CCC[C@H]3C(=O)N[C@@H](CCCN)C(=O)NCC(N)=O)NC(=O)[C@H](CC(N)=O)NC(=O)[C@H]([C@@H](C)O)NC(=O)[C@H]([C@@H](C)CC)NC2=O)cc1 ([Mpa][dY](Et)ITNCP[Orn]G-NH2; disulfide 1-6) ?
Given back: inactive

Asked: Record lookup: outcome of this test for CCCC(=O)Nc1c(I)cc(I)c(CC(CC)C(=O)O)c1I (stereo not given) ?
Given back: inactive

Asked: Give the logged outcome of this assay for the following molecule: C#C[C@]1(O)CC[C@H]2[C@@H]3CCC4=CCCC[C@@H]4[C@H]3C(=C)C[C@@]21CC
Given back: active

Asked: Dear colleague, could you share the recorded outcome for NC(=O)Oc1ccc(Cc2ccccc2)cc1 when you have a moment?
Given back: active

Asked: Outcome logged for CN1C(=O)CN2CCc3ccccc3C2c2cc(Cl)ccc21 (stereo not given) in this assay:
Given back: inactive

Asked: Recorded call for CC1(C)S[C@@H]2[C@H](NC(=O)C(C(=O)Oc3ccc4c(c3)CCC4)c3ccccc3)C(=O)N2[C@H]1C(=O)O (stereo not given in full) ?
Given back: inactive

Source of measurements: PubChem BioAssay (Tox21)
